- System: MDA-MB-157 (Breast Carcinoma);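 also: after 72 h of two-drug dosing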
- experiment: Bliss excess, mean over the matrix (fraction); higher = more synergy
outcome measure: Bliss excess
Answers are plain numbers.

compound	Bliss excess
Cc1nc(-c2cn3c(n2)-c2ccc(-c4cnn(C(C)(C)C(N)=O)c4)cc2OCC3)n(C(C)C)n1 [Taselisib] + O=C(Nc1ccc2[nH]nc(-c3ccncc3)c2c1)[C@@H]1CCN(CC(=O)N2CCN(c3ccc(-c4ncccn4)cc3)CC2)C1 [SCH772984] (first compound max 10 µM, 7x7, partner max 5 µM)	0.0631
CC(=O)c1c(C)c2cnc(Nc3ccc(N4CCNCC4)cn3)nc2n(C2CCCC2)c1=O [Palbociclib] + CC1(C)CCC(CN2CCN(c3ccc(C(=O)NS(=O)(=O)c4ccc(NCC5CCOCC5)c([N+](=O)[O-])c4)c(Oc4cnc5[nH]ccc5c4)c3)CC2)=C(c2ccc(Cl)cc2)C1 [Venetoclax] (first compound max 10 µM, 7x7, partner max 1 µM)	-0.0348

Now examine the next entry.
Q) Dear colleague, I am looking for the recorded Bliss excess of the following compound: Cc1c2c(nn1C)CSCc1cc(n(C)n1)CSc1cc(c3ccccc3c1)OCCCc1c(C(=O)O)n(C)c3c-2c(Cl)ccc13 [AZD5991] + Cn1cnc2c(F)c(Nc3ccc(Br)cc3Cl)c(C(=O)NOCCO)cc21 [Selumetinib] (first compound max 1 µM, 7x7, partner max 3 µM)
A) -0.0098
